Listed compounds paired with reported TGI
# System: SNB-78 CNS
# Experiment Description: NCI tumour cell line growth inhibition, 48 h

Compound | Unit Symbol | Rel | TGI
NC(=O)C12CC3CC(CC(F)(C3)C1)C2 | µM | > | 100
O=C(/C=C/c1cccc2ccccc12)c1ccccc1Cl | µM | = | 40.9
CN(C)CCC(=O)c1ccccc1 | µM | = | 69
CCC(/C=C/C1OC(=O)C=CC1C)=C\C(C)C/C=C/C(C)=C/C(C)C(=O)C(C)C(O)C(C)C/C(C)=C/C(=O)O (stereo unspecified) | µM | = | 14.3
Cn1c(=O)n(C2(C)C[Se]C2)c2ccccc21 | µM | > | 100
O=C(CCc1n[nH]c(=S)o1)Nc1ccccc1C(F)(F)F | µM | > | 100
